Recorded melting point by entry

Example molecules with recorded melting point:
CCOc1ccc(-c2nn(-c3ccc(Cl)cc3)cc2Cn2ccnc2)cc1 [11d] : 124 to 126 °C
CCOc1ccc(-c2nn(-c3ccc(F)cc3)cc2Cn2ccnc2)cc1 [11c] : 118 to 120 °C
CCCOc1ccc(-c2nn(-c3ccc(Cl)cc3)cc2Cn2ccnc2)cc1 [11f] : 90 to 92 °C
CCCOc1ccc(-c2nn(-c3ccc(F)cc3)cc2Cn2ccnc2)cc1 [11e] : 120 to 122 °C

Switching to the query record.
Q: Which measured melting point value corresponds to CCOc1ccc(-c2nn(-c3ccc(Cl)cc3)cc2Cn2cncn2)cc1 [12d] ?
Result: 122 to 124 °C
